Target: Ecdysone receptor (Bombyx mori, UniProt P49881)
Sequence (P49881 whole entry): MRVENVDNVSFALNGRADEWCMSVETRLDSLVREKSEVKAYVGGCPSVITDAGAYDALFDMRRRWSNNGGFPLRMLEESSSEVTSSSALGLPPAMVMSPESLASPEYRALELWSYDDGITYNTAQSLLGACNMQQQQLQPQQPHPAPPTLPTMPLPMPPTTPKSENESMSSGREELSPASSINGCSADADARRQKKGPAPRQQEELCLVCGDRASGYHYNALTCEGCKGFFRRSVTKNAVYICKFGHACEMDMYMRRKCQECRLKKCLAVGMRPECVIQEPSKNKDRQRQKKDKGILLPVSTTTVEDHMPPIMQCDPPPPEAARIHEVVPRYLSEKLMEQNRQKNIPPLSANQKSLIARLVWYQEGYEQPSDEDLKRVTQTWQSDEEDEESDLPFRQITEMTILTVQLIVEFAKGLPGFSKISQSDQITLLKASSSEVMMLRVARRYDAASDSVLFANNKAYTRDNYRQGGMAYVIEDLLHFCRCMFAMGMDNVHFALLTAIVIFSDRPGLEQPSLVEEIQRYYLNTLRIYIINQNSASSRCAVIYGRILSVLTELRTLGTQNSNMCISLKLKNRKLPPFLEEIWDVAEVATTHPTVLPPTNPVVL
Assay: Agonist activity at ecdysone receptor in Bombyx mori Bm5 cells after 24 hr by luciferase reporter gene assay
Reported metric: log10 of EC50 (log10 of the value in µM)
In our notation, the value equals log10 of EC50 in µM.

log10 of EC50 value, target or system Ecdysone receptor (Bombyx mori, UniProt P49881), for Cc1cccc(C(=O)NN(C(=O)c2ccccc2Cl)C(C)(C)C)c1C : -1.70

log10 of EC50 value, target or system Ecdysone receptor (Bombyx mori, UniProt P49881), for CCCCCCCC(=O)NN(C(=O)c1cc(C)cc(C)c1)C(C)(C)C : -1.01

log10 of EC50 value, target or system Ecdysone receptor (Bombyx mori, UniProt P49881), for Cc1cc(C)cc(C(=O)N(NC(=O)CCC(C)C)C(C)(C)C)c1 : -1.04

log10 of EC50 value, target or system Ecdysone receptor (Bombyx mori, UniProt P49881), for Cc1ccccc1C(=O)N(NC(=O)c1ccccc1)C(C)(C)C : -0.65

log10 of EC50 value, target or system Ecdysone receptor (Bombyx mori, UniProt P49881), for CC(C)(C)N(NC(=O)c1cccc(C#N)c1)C(=O)c1ccccc1Cl : -0.02

log10 of EC50 value, target or system Ecdysone receptor (Bombyx mori, UniProt P49881), for CC(C)c1ccc(C(=O)NN(C(=O)c2ccccc2Cl)C(C)(C)C)cc1 : -1.61

log10 of EC50 value, target or system Ecdysone receptor (Bombyx mori, UniProt P49881), for O=C(NN(C(=O)c1ccccc1)c1ccccc1)c1ccccc1 : 1.41

log10 of EC50 value, target or system Ecdysone receptor (Bombyx mori, UniProt P49881), for CC(C)(C)N(NC(=O)c1ccccc1I)C(=O)c1ccccc1Cl : 0.11

log10 of EC50 value, target or system Ecdysone receptor (Bombyx mori, UniProt P49881), for CC(C)(C)N(NC(=O)c1ccccc1)C(=O)C1CCCCC1 : 1.67

log10 of EC50 value, target or system Ecdysone receptor (Bombyx mori, UniProt P49881), for O=C(NN(C(=O)c1ccccc1)C1CCCCC1)c1ccccc1 : -0.05

log10 of EC50 value, target or system Ecdysone receptor (Bombyx mori, UniProt P49881), for CCCCCCC(=O)NN(C(=O)c1ccccc1Cl)C(C)(C)C : -0.13
